assayed_system: human SLC6A19 and TMEM27 (Homo sapiens)
Construct: expressed in transfected cells
Sequence (Q695T7 whole entry): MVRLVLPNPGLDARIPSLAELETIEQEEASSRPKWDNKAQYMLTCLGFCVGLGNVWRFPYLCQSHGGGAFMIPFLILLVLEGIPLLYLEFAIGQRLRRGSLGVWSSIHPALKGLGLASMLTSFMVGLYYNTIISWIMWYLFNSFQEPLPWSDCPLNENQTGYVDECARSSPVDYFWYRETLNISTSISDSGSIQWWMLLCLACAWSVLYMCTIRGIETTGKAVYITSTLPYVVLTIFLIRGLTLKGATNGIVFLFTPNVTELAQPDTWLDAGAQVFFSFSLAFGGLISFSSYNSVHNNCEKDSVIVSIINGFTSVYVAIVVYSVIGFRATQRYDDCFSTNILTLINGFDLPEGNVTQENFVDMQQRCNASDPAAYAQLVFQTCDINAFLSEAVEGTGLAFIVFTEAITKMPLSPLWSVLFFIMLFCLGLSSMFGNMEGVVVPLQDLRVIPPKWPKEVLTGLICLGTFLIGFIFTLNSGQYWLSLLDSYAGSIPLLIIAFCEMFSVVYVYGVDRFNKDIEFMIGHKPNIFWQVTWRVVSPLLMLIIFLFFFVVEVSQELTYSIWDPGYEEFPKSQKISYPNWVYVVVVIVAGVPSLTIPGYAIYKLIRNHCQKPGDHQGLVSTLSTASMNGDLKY
Sequence (Q9HBJ8 15-222 partner): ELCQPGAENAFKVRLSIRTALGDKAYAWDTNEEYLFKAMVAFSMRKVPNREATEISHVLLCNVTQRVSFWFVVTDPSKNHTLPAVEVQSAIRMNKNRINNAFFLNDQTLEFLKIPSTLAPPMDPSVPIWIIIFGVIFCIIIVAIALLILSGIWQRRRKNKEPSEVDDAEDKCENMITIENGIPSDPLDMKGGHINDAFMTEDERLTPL
measurement_description: Radiolabelled (3H) leucine uptake in CHO cells with doxycycline-inducible expression of human SLC6A19 and TMEM27 (Example B-1)
Format: cell-based
condition_label: CHO cells with doxycycline-inducible expression of human SLC6A19 and TMEM27, read-out: SLC6A19_Radioligand Uptake Assay IC50
Give measured IC50 for each item. Keep answers brief.
// units = nM; emit number, no label

Item `CC1(C(=O)NCc2[nH]c3cc(OCc4cscn4)ccc3c2C(F)(F)F)CC1` with human SLC6A19 and TMEM27 (Homo sapiens) - IC50?
666

What IC50 appears in the records for this molecule with human SLC6A19 and TMEM27 (Homo sapiens)? `O=C(NCc1cc2cc(OC(F)(F)F)c(OCc3cscn3)cc2[nH]1)N1CCC1`
359

# query: IC50 | item `Cc1cc(COc2cc3[nH]c(CNC(=O)C(F)F)cc3cc2Cl)on1` | system: human SLC6A19 and TMEM27 (Homo sapiens)
82.2

Value wanted: IC50 (human SLC6A19 and TMEM27 (Homo sapiens)) of entry `O=C(NCc1cc2cc(OC(F)(F)F)c(CCc3cocn3)cc2[nH]1)N1CCCC1`
422

# value lookup — system human SLC6A19 and TMEM27 (Homo sapiens), readout IC50, item `O=C(NCc1cc2cc(C(F)(F)F)c(OCc3ccon3)cc2[nH]1)N1CCC1`
383

Lab note: need IC50 for `Cc1cnc(COc2cc3[nH]c(CNC(=O)C4(C)CC4)cc3cc2Cl)o1` on human SLC6A19 and TMEM27 (Homo sapiens), anyone have it?
117

Recall the recorded IC50 for `CC(=O)NCc1cc2cc(Cl)c(NCc3ccon3)cc2[nH]1` with human SLC6A19 and TMEM27 (Homo sapiens) and state it.
317

Missing value: IC50, human SLC6A19 and TMEM27 (Homo sapiens), entry `CNC(=O)NCc1cc2cc(Cl)c(OCc3cc(C)no3)cc2[nH]1` . Fill in?
87.7

---

assayed_system: human SLC6A19 and TMEM27 (Homo sapiens)
Construct: expressed in transfected cells
measurement_description: Radiolabelled (3H) leucine uptake in CHO cells with doxycycline-inducible expression of human SLC6A19 and TMEM27 (Example B-1)
Format: cell-based
condition_label: CHO cells with doxycycline-inducible expression of human SLC6A19 and TMEM27, read-out: SLC6A19_Radioligand Uptake Assay IC50
Counter-ions that a name gives are not always drawn.
API: label(entry) gives condition met if the entry's IC50 is strictly smaller than 400 nM; on equality or larger values it gives condition not met.

Is it true that IC50 reported for `Cn1ncc(COc2cc3[nH]c(CNC(=O)C4(C)CC4)cc3cc2F)n1` is less than 400 nM?
condition not met

Threshold test, IC50 < 400 nM: `CC1(C(=O)NCc2cc3ccc(OCc4cscn4)c(F)c3[nH]2)CC1`
condition met

Please determine if O=C(NCc1cc2cc(Cl)c(OCc3cscn3)cc2[nH]1)N1CCC(F)C1 (centres unmarked) is below 400 nM in terms of IC50.
condition met

Problem: For the molecule `Cn1ncc(COc2cc3[nH]c(CNC(=O)N4CCC4)cc3cc2Cl)n1` , is IC50 under 400 nM?
condition met

Given `CC1(C(=O)NCc2cc3cc(F)c(OCc4ccon4)cc3[nH]2)CCC1` , is recorded IC50 strictly lower than 400 nM?
condition not met

Does the reported IC50 of the following molecule sit strictly below 400 nM? `O=C(NCc1cc2cc(Cl)c(NCc3ccon3)cc2[nH]1)N1CCCC1`
condition met

Please determine if CC1(C(=O)NCc2cc3ccc(OCc4cccnc4F)cc3[nH]2)CC1 [Compound 98, formate] is below 400 nM in terms of IC50.
condition met

Bench note: check whether `Cc1cc(COc2cc3[nH]c(CNC(=O)C4(C)CC4)cc3cc2F)on1` shows IC50 below 400 nM
condition met

API: query returns whether the molecule falls strictly under 400 nM in IC50. Query: `Cc1cc(COc2cc3[nH]c(CNC(=O)C4(C)CC4)cc3cc2Cl)sn1`
condition not met

Given `Cc1cc(COc2cc3[nH]c(CNC(=O)c4ccno4)cc3cc2Cl)on1` , is recorded IC50 strictly lower than 400 nM?
condition met

Please let me know if `C[C@@H]1CCCN1C(=O)NCc1cc2cc(F)c(OCc3ccon3)cc2[nH]1` shows IC50 below 400 nM.
condition met

Determine whether this molecule shows IC50 lower than 400 nM (ties excluded): `Cc1cc2cc(CNC(=O)N3CCCC3)[nH]c2cc1OCc1cscn1`
condition met

Please let me know if `CC(=O)NCc1cc2cc(Cl)c(OC[C@H]3CCCO3)cc2[nH]1` shows IC50 below 400 nM.
condition not met

Identify whether the molecule `Cc1cc(COc2cc3[nH]c(CNC(=O)C4(C)CC4)cc3cc2C)no1` records IC50 below 400 nM.
condition met

Quick check: does `CN(C(=O)NCc1cc2cc(Cl)c(OCc3ccon3)cc2[nH]1)C1CC1` have IC50 under 400 nM?
condition met

IC50 strictly < 400 nM for this molecule? `COCC(=O)NCc1cc2cc(F)c(OCc3cscn3)cc2[nH]1`
condition met

Is IC50 of `CC(C)C(=O)NCc1cc2cc(F)c(OCc3ccon3)cc2[nH]1` strictly below 400 nM?
condition met

Is 400 nM strictly greater than the molecule's reported IC50? molecule: `CC1(C(=O)NCc2cc3cc(F)c(OCc4cccc(F)n4)cc3[nH]2)CC1`
condition met

Strictly below 400 nM in IC50? `CC1(C(=O)NCc2cc3cc(Cl)c(OCC4CC(F)(F)C4)cc3[nH]2)CC1`
condition not met

Confirm or reject: IC50 of `Cc1cc(COc2cc3[nH]c(CNC(=O)[C@@H](O)CF)cc3cc2Cl)on1` lies strictly below 400 nM
condition not met

Please state whether IC50 is below 400 nM for `CC1(C(=O)NCc2cc3cc(Cl)c(OCc4ccc5ccoc5c4)cc3[nH]2)CC1`
condition not met

Hello, is IC50 of the following molecule strictly smaller than 400 nM? `CCC(=O)NCc1cc2cc(C)c(OCc3ccon3)cc2[nH]1`
condition met

Below 400 nM on IC50? Entry `Cc1cc(COc2cc3[nH]c(CNC(=O)[C@H]4COCCO4)cc3cc2Cl)on1`
condition not met

# strict comparison: is reported IC50 < 400 nM? input = `Cc1cc(COc2cc3[nH]c(CNC(=O)N4CCCC4)cc3cc2F)no1`
condition met

IC50 strictly < 400 nM for this molecule? `O=C(NCc1cc2cc(F)c(OCc3cscn3)cc2[nH]1)N1CCCC1`
condition met

Record `O=C(NCc1cc2cc(OC(F)(F)F)c(CCc3ccon3)cc2[nH]1)N1CCC1` : is its IC50 strictly below 400 nM?
condition met

Please let me know if `Cc1cc2cc(CNC(=O)N3CCC3)[nH]c2cc1OCc1ccon1` shows IC50 below 400 nM.
condition not met

Field: below-cutoff. Rule: recorded IC50 strictly less than 400 nM. Subject: `Cc1cc(COc2cc3[nH]c(CNC(=O)C4(C)CC4)cc3cc2F)no1`
condition met

Is IC50 of `O=C(NCc1cc2cc(F)c(OCc3cocn3)cc2[nH]1)N1CCCC1` strictly below 400 nM?
condition met

Does this molecule meet the criterion IC50 < 400 nM? `CC(=O)NCc1cc2cc(F)c(OCc3ccon3)cc2[nH]1`
condition not met

Here's an entry: CC1CCCN1C(=O)NCc1cc2cc(Cl)c(OCc3ccon3)cc2[nH]1 (centres unmarked) . Is its IC50 below 400 nM?
condition not met

Decide: IC50 of `CC1(C(=O)NCc2cc3cc(Cl)c(OCc4cccnc4F)cc3[nH]2)CC1` strictly below 400 nM?
condition met

Just wondering, is IC50 of O=C(NCc1cc2ccc(OCc3ccon3)cc2[nH]1)N1CCC(F)C1 (centres unmarked) below 400 nM?
condition not met

These measurements were taken from patent US20240199546A1.
